target: VHL (Homo sapiens, UniProt P40337); experiment: VHL HEK-293 BRET Assay (VHL NanoBRET Target Engagement Assay); conditions: HEK 293 RT VHL-NanoLuc stable cells; 1 uM tracer; 2 hours; geometric mean where more than one measurement; read-out: VHL binding in cells (HEK293 nanoBRET)
Sequence (P40337 whole entry): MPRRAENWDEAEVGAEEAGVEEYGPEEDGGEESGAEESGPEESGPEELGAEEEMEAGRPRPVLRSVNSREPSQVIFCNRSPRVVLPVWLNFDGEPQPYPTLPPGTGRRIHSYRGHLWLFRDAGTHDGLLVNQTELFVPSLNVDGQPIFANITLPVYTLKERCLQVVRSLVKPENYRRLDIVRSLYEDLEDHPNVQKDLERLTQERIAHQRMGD
Entries annotated with measured IC50

Compound	System	Endpoint Unit	IC50
C[C@H](NC(=O)[C@@H]1C[C@@H](O)CN1C(=O)[C@@H](n1cc(C2CC2)nn1)C(C)(C)C)c1ccc(-c2ccccc2F)cc1	VHL (Homo sapiens, UniProt P40337)	nM	10
COC(=O)c1nnn([C@H](C(=O)N2C[C@H](O)C[C@H]2C(=O)N[C@H](Cc2ccc(-c3ccccc3)cc2)C(N)=O)C(C)C)c1C (single isomer, unassigned) [Isomer B from Example S33]	VHL (Homo sapiens, UniProt P40337)	nM	1620
CC(C)[C@H](C(=O)N1C[C@H](O)C[C@H]1C(=O)N[C@H](Cc1ccc(-c2ccccc2)cc1)C(N)=O)n1nnc2ccccc21 (single isomer, unassigned) [Isomer B from Example S36]	VHL (Homo sapiens, UniProt P40337)	nM	68500
Cc1ncsc1-c1ccc(CNC(=O)[C@@H]2C[C@@H](O)CN2C(=O)[C@@H](n2cc(C3CC3)nn2)C(C)(C)C)cc1	VHL (Homo sapiens, UniProt P40337)	nM	10
CC(C)[C@@H](C(=O)N1C[C@H](O)C[C@H]1C(=O)N[C@H](Cc1ccc(-c2ccccc2)cc1)C(N)=O)n1cc(-c2cccs2)nn1	VHL (Homo sapiens, UniProt P40337)	nM	190
Cc1ncsc1-c1ccc(CNC(=O)[C@@H]2C[C@@H](O)CN2C(=O)[C@@H](n2cc(C3(c4cn([C@H](C(=O)N5C[C@H](O)C[C@H]5C(=O)NCc5ccc(-c6scnc6C)cc5)C(C)(C)C)nn4)CC3)nn2)C(C)(C)C)cc1	VHL (Homo sapiens, UniProt P40337)	nM	310
C#CC1(c2cn([C@H](C(=O)N3C[C@H](O)C[C@H]3C(=O)NCc3ccc(-c4scnc4C)cc3)C(C)(C)C)nn2)CC1	VHL (Homo sapiens, UniProt P40337)	nM	20
C[C@@H](NC(=O)[C@@H]1C[C@@H](O)CN1C(=O)[C@@H](n1cc(C2CC2)nn1)C(C)(C)C)c1ccc(-c2ccccc2F)cc1	VHL (Homo sapiens, UniProt P40337)	nM	1100
C[C@H](NC(=O)[C@@H]1C[C@@H](O)CN1C(=O)[C@@H](n1cc(C2CC2)nn1)C(C)(C)C)c1ccc(-c2ccccc2Cl)cc1	VHL (Homo sapiens, UniProt P40337)	nM	10
Cc1ncsc1-c1ccc(CNC(=O)[C@@H]2C[C@@H](O)CN2C(=O)[C@@H](n2cc(C3(C(F)(F)F)CC3)nn2)C(C)(C)C)cc1	VHL (Homo sapiens, UniProt P40337)	nM	40
NC(=O)[C@@H](Cc1ccc(-c2ccccc2)cc1)NC(=O)[C@@H]1C[C@@H](O)CN1C(=O)[C@@H](n1cc(C2CC2)nn1)C12CC3CC(CC(C3)C1)C2	VHL (Homo sapiens, UniProt P40337)	nM	120

###

molecular target: VHL (Homo sapiens, UniProt P40337); assay: VHL HEK-293 BRET Assay (VHL NanoBRET Target Engagement Assay); details: HEK 293 RT VHL-NanoLuc stable cells; 1 uM tracer; 2 hours; geometric mean where more than one measurement; read-out: VHL binding in cells (HEK293 nanoBRET)
Endpoint: IC50

> print(dat)
                           smiles.structure  experimental.value
1  Cc1ncsc1-c1ccc([C@H](C)NC(=O)[C@@H]2C[C@@H](O)CN2C(=O)[C@H](C2CCCCC2)n2cc(C3CC3)nn2)cc1              < 5 nM
2  CC(=O)NCC1(c2cn([C@@H](C(=O)N3C[C@H](O)C[C@H]3C(=O)N[C@H](Cc3ccc(-c4ccccc4)cc3)C(N)=O)C(C)(C)C)nn2)CC1         > 100000 nM
3  Cc1ncsc1-c1ccc2c(c1)CCCC[C@H]2NC(=O)[C@@H]1C[C@@H](O)CN1C(=O)[C@@H](n1cc(C2CC2)nn1)C(C)(C)C              < 5 nM

###

target: VHL (Homo sapiens, UniProt P40337); construct: expressed in transfected cells; assay: VHL HEK-293 BRET Assay (VHL NanoBRET Target Engagement Assay); assay type: cell-based; details: ratio not defined
Endpoint: Ratio cell permeability shift

> print(dat)
                                   compound  experimental.value
1  CC(C)[C@@H](C(=O)N1C[C@H](O)C[C@H]1C(=O)N[C@H](Cc1ccc(-c2ccccc2)cc1)C(N)=O)n1cc(-c2cccs2)nn1 [Example S38]                1.12
2  Cc1ncsc1-c1ccc(CNC(=O)[C@@H]2C[C@@H](O)CN2C(=O)[C@@H](n2cc(C3CC3)nn2)C(C)(C)C)cc1 [Example S24]                1.22
3  Cc1ncsc1-c1ccc2c(c1)CCCC[C@@H]2NC(=O)[C@@H]1C[C@@H](O)CN1C(=O)[C@@H](n1cc(C2CC2)nn1)C(C)(C)C [Example S45]                0.86
4  Cc1nnn([C@H](C(=O)N2C[C@H](O)C[C@H]2C(=O)N[C@H](Cc2ccc(-c3ccccc3)cc2)C(N)=O)C(C)C)c1C [Example S37]                1.43
5  Cc1ncsc1-c1ccc(CNC(=O)[C@@H]2C[C@@H](O)CN2C(=O)[C@@H](n2cc(C3(C)CC3)nn2)C(C)(C)C)cc1 [Example S29]                1.04

###

Examples of compounds with documented EC50 follow.
target: VHL (Homo sapiens); test: VHL nanoBRET (+ Digitonin)
Endpoint: EC50

Compound	Experimental Value
Cc1c(C(=O)O)nnn1[C@@H](C(=O)N1C[C@H](O)C[C@H]1C(=O)N[C@H](Cc1ccc(-c2ccccc2)cc1)C(N)=O)C(C)C	> 100000 nM
Cc1ncsc1-c1ccc(CNC(=O)[C@@H]2C[C@@H](O)CN2C(=O)[C@@H](n2cc(C3(c4cn([C@H](C(=O)N5C[C@H](O)C[C@H]5C(=O)NCc5ccc(-c6scnc6C)cc5)C(C)(C)C)nn4)CC3)nn2)C(C)(C)C)cc1	20 nM
Cc1ncsc1-c1ccc2c(c1)CCCC[C@H]2NC(=O)[C@@H]1C[C@@H](O)CN1C(=O)[C@@H](n1cc(C2CC2)nn1)C(C)(C)C	< 5 nM
Cc1c(C(=O)O)nnn1[C@H](C(=O)N1C[C@H](O)C[C@H]1C(=O)N[C@H](Cc1ccc(-c2ccccc2)cc1)C(N)=O)C(C)C	13000 nM
CC(C)(C)[C@@H](C(=O)N1C[C@H](O)C[C@H]1C(=O)N[C@H](Cc1ccc(-c2ccccc2)cc1)C(N)=O)n1cc(C(=O)O)nn1	610 nM
CC(C)[C@@H](C(=O)N1C[C@H](O)C[C@H]1C(=O)N[C@H](Cc1ccc(-c2ccccc2)cc1)C(N)=O)n1cc(-c2ccco2)nn1	110 nM
CC(C)[C@H](C(=O)N1C[C@H](O)C[C@H]1C(=O)N[C@H](Cc1ccc(-c2ccccc2)cc1)C(N)=O)n1nnc2ccccc21 (single isomer, unassigned) [Isomer B from Example S36]	68000 nM
C[C@@H](NC(=O)[C@@H]1C[C@@H](O)CN1C(=O)[C@@H](n1cc(C2CC2)nn1)C(C)(C)C)c1ccc(-c2ccccc2F)cc1	1540 nM
Cc1ncsc1-c1ccc([C@H](C)NC(=O)[C@@H]2C[C@@H](O)CN2C(=O)[C@@H](n2cc(C3CC3)nn2)C(C)(C)C)cc1	10 nM
Cc1nnn([C@H](C(=O)N2C[C@H](O)C[C@H]2C(=O)N[C@H](Cc2ccc(-c3ccccc3)cc2)C(N)=O)C(C)C)c1C	1160 nM
CC(C)(C)[C@@H](C(=O)N1C[C@H](O)C[C@H]1C(=O)N[C@H](Cc1ccc(-c2ccccc2)cc1)C(N)=O)n1cc(C(N)=O)nn1	400 nM
NC(=O)[C@@H](Cc1ccc(-c2ccccc2)cc1)NC(=O)[C@@H]1C[C@@H](O)CN1C(=O)[C@H](C1CCC1)n1cc(C2CC2)nn1	200 nM
C#CC1(c2cn([C@H](C(=O)N3C[C@H](O)C[C@H]3C(=O)NCc3ccc(-c4scnc4C)cc3)C(C)(C)C)nn2)CC1	20 nM
